The measurements presented in this section are drawn from PubChem BioAssay (NCI).

Can you tell me GI50 for the items I'm about to list?
# System: SF-295 CNS
# measurementDescription: NCI tumour cell line growth inhibition, 48 h

Quick note, GI50 for COc1cc(C=NCC(=O)CSC(c2ccccc2)c2ccccc2)cc(OC)c1OC landed at 11500 nM

Quick note, GI50 for O=c1c2c(=NCCCN3CCCC3)cc3c(=O)n(CCCN4CCCC4)c(=O)c4c(NCCCN5CCCC5)cc(c(O)n1CCCN1CCCC1)c2c4-3 landed at 1950 nM

Quick note, GI50 for N#CC(C#N)=C/C=C/c1cccc([N+](=O)[O-])c1 landed at 2280 nM

Quick note, GI50 for O.O=[Se](=O)(O)O.[NH-]C1CCCCC1[NH-].[Pt+2] (stereo unspecified) landed at 15400 nM

Quick note, GI50 for O=C(O)C(O)C(O)C1[O][Sb][O]C1CO (stereo unspecified) landed at > 100000 nM

Quick note, GI50 for Fc1cc(Nc2ccc3c(OCCCN4CCOCC4)cccc3n2)ccc1Cl landed at 1970 nM
